System: Human betaherpesvirus 5
Experiment: Antiviral activity was determined against Human cytomegalovirus (HCMV) strain Davis using CPE inhibition assay
Assay type: functional, organism-based
Reported values of log10 of EC50 for individual entries
experimental_endpoint: log10 of EC50 (log10 of the value in µg/mL)

>  <compound>
O=c1[nH]c(=O)n(C2C=C(CO)CO2)cc1Br (stereo not given)

>  <log10 of EC50>
1.40

$$$$
>  <compound>
Nc1nc2c(ncn2COC(CO)CO)c(=O)[nH]1

>  <log10 of EC50>
-0.21

$$$$
>  <compound>
O=C(O)P(=O)(O)O

>  <log10 of EC50>
1.59

$$$$
>  <compound>
O=c1[nH]c(=O)n(C2C=C(CO)CO2)cc1I (stereo not given)

>  <log10 of EC50>
1.43

$$$$
>  <compound>
O=c1[nH]c(=O)n(C2C=C(CO)CO2)cc1Cl (stereo not given)

>  <log10 of EC50>
1.40

$$$$
>  <compound>
Cc1cn(C2C=C(CO)CO2)c(=O)[nH]c1=O (stereo not given)

>  <log10 of EC50>
1.22

$$$$
>  <compound>
O=c1[nH]c(=O)n(C2C=C(CO)CO2)cc1F (stereo not given)

>  <log10 of EC50>
0.45

$$$$

* * *

Test system: Human betaherpesvirus 5
Assay: Antiviral activity was determined against Human cytomegalovirus (HCMV) strain Davis using CPE inhibition assay
Type: functional, organism-based
Entries annotated with measured EC50
experimental_endpoint: EC50

>  <molecule>
O=c1ccn(C2C=C(CO)CS2)c(=O)[nH]1 (stereo not drawn)

>  <experimental_endpoint>
EC50

>  <measured_result>
> 100 µg/mL

$$$$
>  <molecule>
O=c1ccn(C2C=C(CO)CO2)c(=O)[nH]1 (stereo not drawn)

>  <experimental_endpoint>
EC50

>  <measured_result>
> 33.3 µg/mL

$$$$
>  <molecule>
Cc1cn(C2C=C(CO)CS2)c(=O)[nH]c1=O (stereo not drawn)

>  <experimental_endpoint>
EC50

>  <measured_result>
> 100 µg/mL

$$$$
